Biological target: human GPR40 (Homo sapiens)
Sequence (O14842 whole entry): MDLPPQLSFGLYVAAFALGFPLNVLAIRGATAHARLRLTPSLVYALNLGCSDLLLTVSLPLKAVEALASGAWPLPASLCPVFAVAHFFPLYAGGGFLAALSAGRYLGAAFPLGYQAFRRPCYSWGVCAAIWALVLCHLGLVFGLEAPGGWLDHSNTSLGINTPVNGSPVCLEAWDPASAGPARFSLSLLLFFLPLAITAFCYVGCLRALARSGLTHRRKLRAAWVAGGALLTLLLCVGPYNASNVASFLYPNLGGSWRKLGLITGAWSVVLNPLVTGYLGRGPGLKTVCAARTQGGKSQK
Assay: FDSS-based intracellular calcium assay (Human GRP40 in vitro assay)
Format: cell-based
Design: 3xFLAG; expressed in transfected cells
Conditions: cells expressing GPR40, intracellular Ca2+ response, FDSS reader; read-out: hGPR40 EC50
pEC50: −log10 of the molar value. Where a name gives a salt, the structure may show the parent alone.
metric: pEC50

compound="CCOc1ccc(F)c(N2CCC(Oc3ccc(N4C[C@H](OC)[C@@H](CC)[C@@H]4CC(=O)O)cc3)CC2)c1 [Example 88, TFA]" metric=pEC50 observed_result=6.60
compound="COc1cc(N2CCC(Oc3ccc(N4C[C@H](C(F)(F)F)C[C@@H]4CC(=O)O)cc3)C(C)C2)c(Cl)cn1 (single isomer, unassigned) [Example 27, Isomer 2, HCl]" metric=pEC50 observed_result=6.89
compound="COc1cc(N2CCC(Oc3ccc(N4C[C@H](C(F)(F)F)C[C@@H]4CC(=O)O)cc3)C(F)C2)c(Cl)cn1 (single isomer, unassigned) [Example 28, Isomer 2, HCl]" metric=pEC50 observed_result=6.68
compound="CCOc1ccc(F)c(N2CCC(Oc3ccc(N4C[C@H](c5cccc(C(F)(F)F)c5)C[C@@H]4CC(=O)O)cc3)CC2)c1 [Example 122, TFA]" metric=pEC50 observed_result=6.62
compound="COc1cc(N2CCC(Oc3ccc(N4C[C@H](OC)C[C@@H]4CC(=O)O)cn3)C(C)C2)c(C2CCCC2)cn1 (stereo partly drawn) [Example 149]" metric=pEC50 observed_result=6.80

[I] CCOc1ccc(F)c(N2CCC(Oc3ccc(N4C[C@H](C(F)(F)F)C[C@@H]4CC(=O)O)cc3)C(CC)C2)c1 (single isomer, unassigned) [Example 33, Isomer 2, HCl]
[II] CCOc1ccc(F)c(N2CCC(Oc3ccc(N4C[C@H](c5ccc(OC)nc5)C[C@@H]4CC(=O)O)cc3)CC2)c1 [Example 123, TFA]
[III] CCO[C@@H]1C[C@H](CC(=O)O)N(c2ccc(OC3CCN(c4cc(OC)ccc4F)CC3)cc2)C1 [Example 2, HCl]
[IV] COc1cc(N2CCC(Oc3ccc(N4C[C@H](OC)C[C@@H]4CC(=O)O)cc3)C(Cn3cnnn3)C2)c(Cl)cn1 (stereo partly drawn) [Example 94, TFA]
[V] COc1cc(N2CCC(Oc3ccc(N4C[C@H](OC)[C@@H](C)[C@@H]4CC(=O)O)cn3)CC2)c(C2CCCC2(C)C)cn1 (single isomer, unassigned) [Example 151, Isomer 1, HCl]
Rank the items in ascending order with respect to pEC50. # the answer lists labels in the order requested
IV, I, II, III, V
